Target Desc: UniProtKB P56373
Run Description: Evaluation of human P2X3 receptor inhibitory activity (Fluo-3 calcium fluorescence, FDSS 3000, ATP stimulation)
Assay type: cell-based
Condition Set: C6BU-1 cells stably expressing human P2X3 receptor

- Entry Smiles: "CCOc1ccc(/N=c2\\[nH]c(=O)n(C[C@@H](C)C(=O)O)c(=O)n2CC2CCCCC2)cc1Cl"
  Units Label: "nM"
  IC50: 336
- Entry Smiles: "CC(C)c1cccc(/N=c2\\[nH]c(=O)n(C[C@H](C)C(=O)O)c(=O)n2Cc2ccc(Cl)cc2)c1"
  Units Label: "nM"
  IC50: 170
- Entry Smiles: "COc1cc(/N=c2\\[nH]c(=O)n(CCO)c(=O)n2Cc2ccc(Cl)cc2)ccc1OC(C)C"
  Units Label: "nM"
  IC50: 36
- Entry Smiles: "Cc1cc(/N=c2\\[nH]c(=O)n([C@@H]3CN[C@H](C(=O)O)C3)c(=O)n2Cc2ccc(Cl)cc2)ccc1OC(C)C"
  Units Label: "nM"
  IC50: 102
- Entry Smiles: "COC(=O)[C@@H](C)Cn1c(=O)[nH]/c(=N\\c2cnc(Oc3ccccc3)c(Cl)c2)n(Cc2ccc(C)cc2)c1=O"
  Units Label: "nM"
  IC50: 138
- Entry Smiles: "CC(C)Oc1ccc(/N=c2\\[nH]c(=O)n(CC(=O)N3CCOCC3)c(=O)n2Cc2ccc(Cl)cc2)cc1Cl"
  Units Label: "nM"
  IC50: 29
- Entry Smiles: "Cc1ccc(Cn2c(=O)n(C[C@H](C)C(=O)O)c(=O)[nH]/c2=N\\c2ccc(OC3CCC3)cc2)cc1"
  Units Label: "nM"
  IC50: 13

---

Target Desc: human P2X3 receptor (Homo sapiens (Human), UniProt P56373)
Sequence (P56373 whole entry): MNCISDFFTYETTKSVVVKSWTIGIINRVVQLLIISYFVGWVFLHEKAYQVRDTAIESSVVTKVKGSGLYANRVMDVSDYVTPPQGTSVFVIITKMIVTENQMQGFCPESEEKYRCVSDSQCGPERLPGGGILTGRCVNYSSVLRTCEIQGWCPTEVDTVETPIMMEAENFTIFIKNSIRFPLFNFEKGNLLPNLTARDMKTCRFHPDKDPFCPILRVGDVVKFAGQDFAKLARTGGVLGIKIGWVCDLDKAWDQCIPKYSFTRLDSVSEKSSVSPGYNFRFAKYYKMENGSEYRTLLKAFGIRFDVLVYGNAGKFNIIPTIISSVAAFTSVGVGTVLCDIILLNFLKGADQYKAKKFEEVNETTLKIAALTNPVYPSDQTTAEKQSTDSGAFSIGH
Run Description: Evaluation of human P2X3 receptor inhibitory activity (Fluo-3 calcium fluorescence, FDSS 3000, ATP stimulation);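 further: stimulus was 50 nM ATP with fluorescence followed for 3 min, and the response per well was peak post-ATP fluorescence divided by the reading at measurement start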
Format: cell-based
Condition Set: human P2X3 receptor, Test Example 1
Value Kind: log10(IC50) (log10 of the value in nM)

- Compound: "COC(=O)[C@@H](C)Cn1c(=O)[nH]/c(=N\\c2ccc(C3CC3)c(C3CC3)c2)n(Cc2ccc(C)cc2)c1=O [Compound I-1488]"
  Target Desc: "human P2X3 receptor (Homo sapiens (Human), UniProt P56373)"
  Result Number: 2.81
- Compound: "Cn1c(=O)[nH]/c(=N\\c2ccc(Oc3cccc(C(=O)O)n3)c(F)c2)n(Cc2ccc(Cl)cc2)c1=O [Compound I-2502]"
  Target Desc: "human P2X3 receptor (Homo sapiens (Human), UniProt P56373)"
  Result Number: 0.85
- Compound: "CCc1nc2ccc(/N=c3\\[nH]c(=O)n(CCC(=O)O)c(=O)n3Cc3ccc(C)cc3)cc2s1 [Compound I-1510]"
  Target Desc: "human P2X3 receptor (Homo sapiens (Human), UniProt P56373)"
  Result Number: 1.11
- Compound: "Cc1ccc(Cn2c(=O)n(CC3(C(=O)O)CC3)c(=O)[nH]/c2=N\\c2ccc3nc(C)sc3c2)cc1 [Compound I-1554]"
  Target Desc: "human P2X3 receptor (Homo sapiens (Human), UniProt P56373)"
  Result Number: 1.15
- Compound: "CCOC(=O)CCn1c(=O)[nH]/c(=N\\c2ccc(OCC)c(Cl)c2)n(Cc2ccc(C)cc2)c1=O [Compound I-0867]"
  Target Desc: "human P2X3 receptor (Homo sapiens (Human), UniProt P56373)"
  Result Number: 0.78
- Compound: "CCn1c(=O)[nH]/c(=N\\c2ccc(Oc3ccsn3)cc2)n(C[C@H]2CC[C@H](C)CC2)c1=O [Compound I-2350]"
  Target Desc: "human P2X3 receptor (Homo sapiens (Human), UniProt P56373)"
  Result Number: 0.30
- Compound: "CNC(=O)Cn1c(=O)[nH]/c(=N\\c2ccc(Oc3ccon3)cc2)n(Cc2ccc(Cl)cc2)c1=O [Compound I-2590]"
  Target Desc: "human P2X3 receptor (Homo sapiens (Human), UniProt P56373)"
  Result Number: 1.23
- Compound: "Cc1ccc(Cn2c(=O)n(C)c(=O)[nH]/c2=N\\c2ccc(Oc3cc(C(N)=O)ccn3)cc2)cc1 [Compound I-2342]"
  Target Desc: "human P2X3 receptor (Homo sapiens (Human), UniProt P56373)"
  Result Number: 1.20
- Compound: "CC(=O)Nc1cc(Oc2ccc(/N=c3\\[nH]c(=O)[nH]c(=O)n3Cc3ccc(Cl)cc3)cc2)ccn1 [Compound I-2430]"
  Target Desc: "human P2X3 receptor (Homo sapiens (Human), UniProt P56373)"
  Result Number: 1.68
- Compound: "CCn1c(=O)[nH]/c(=N\\c2ccc(Oc3ncc(C(=O)OC)cn3)cc2)n(Cc2ccc(Cl)cc2)c1=O [Compound I-2322]"
  Target Desc: "human P2X3 receptor (Homo sapiens (Human), UniProt P56373)"
  Result Number: 0.78
- Compound: "Cc1cc(Oc2ccc(/N=c3\\[nH]c(=O)n(C[C@H]4COC(C)(C)O4)c(=O)n3Cc3ccc(Cl)cc3)cc2)n(C)n1 [Compound I-2368]"
  Target Desc: "human P2X3 receptor (Homo sapiens (Human), UniProt P56373)"
  Result Number: 1.11
- Compound: "Cn1c(=O)[nH]/c(=N\\c2ccc(Oc3ccnc(C(N)=O)c3)cc2)n(Cc2ccc(Cl)cc2)c1=O [Compound I-2378]"
  Target Desc: "human P2X3 receptor (Homo sapiens (Human), UniProt P56373)"
  Result Number: 0.78
- Compound: "Cc1cc(Oc2ccc(/N=c3\\[nH]c(=O)n(C[C@@H]4COC(C)(C)O4)c(=O)n3Cc3ccc(Cl)cc3)cc2)no1 [Compound I-2228]"
  Target Desc: "human P2X3 receptor (Homo sapiens (Human), UniProt P56373)"
  Result Number: 0.70
- Compound: "CCn1c(=O)[nH]/c(=N\\c2ccc(Sc3ccc(C(=O)O)cc3)cc2)n(Cc2ccc(Cl)cc2)c1=O [Compound I-2603]"
  Target Desc: "human P2X3 receptor (Homo sapiens (Human), UniProt P56373)"
  Result Number: 2.10
- Compound: "Cn1c(=O)[nH]/c(=N\\c2ccc(Oc3ccon3)cc2)n(Cc2ccc(Cl)cc2)c1=O [Compound I-2356]"
  Target Desc: "human P2X3 receptor (Homo sapiens (Human), UniProt P56373)"
  Result Number: 1.38
- Compound: "CCn1c(=O)[nH]/c(=N\\c2ccc(Oc3cnc(C(=O)O)nc3)cc2)n(Cc2ccc(Cl)cc2)c1=O [Compound I-2285]"
  Target Desc: "human P2X3 receptor (Homo sapiens (Human), UniProt P56373)"
  Result Number: 1.18
- Compound: "CCn1c(=O)[nH]/c(=N\\c2ccc(Oc3ccnc(C(N)=O)n3)cc2)n(Cc2ccc(Cl)cc2)c1=O [Compound I-2532]"
  Target Desc: "human P2X3 receptor (Homo sapiens (Human), UniProt P56373)"
  Result Number: 0.70
- Compound: "O=C(O)CCn1c(=O)[nH]/c(=N\\c2ccc(Oc3ccon3)cc2)n(Cc2ccc(Cl)cc2)c1=O [Compound I-2435]"
  Target Desc: "human P2X3 receptor (Homo sapiens (Human), UniProt P56373)"
  Result Number: 1.57
- Compound: "CNC(=O)Cn1c(=O)[nH]/c(=N\\c2ccc(Oc3nccs3)cc2)n(Cc2ccc(Cl)cc2)c1=O [Compound I-2645]"
  Target Desc: "human P2X3 receptor (Homo sapiens (Human), UniProt P56373)"
  Result Number: 1.26
- Compound: "CCn1c(=O)[nH]/c(=N\\c2ccc(Oc3ncc(C(N)=O)s3)cc2)n(Cc2ccc(Cl)cc2)c1=O [Compound I-2609]"
  Target Desc: "human P2X3 receptor (Homo sapiens (Human), UniProt P56373)"
  Result Number: 0.30
- Compound: "COC(=O)c1cncc(Oc2ccc(/N=c3\\[nH]c(=O)n(C)c(=O)n3Cc3ccc(C)cc3)cc2)n1 [Compound I-2468]"
  Target Desc: "human P2X3 receptor (Homo sapiens (Human), UniProt P56373)"
  Result Number: 1.30
- Compound: "Cn1c(=O)[nH]/c(=N\\c2ccc(Oc3cc(C(N)=O)ccn3)cc2)n(Cc2ccc(Cl)cc2)c1=O [Compound I-2376]"
  Target Desc: "human P2X3 receptor (Homo sapiens (Human), UniProt P56373)"
  Result Number: 1.30
- Compound: "COC(=O)[C@@H](C)Cn1c(=O)[nH]/c(=N\\c2ccc(CC3CC3)c(Cl)c2)n(Cc2ccc(C)cc2)c1=O [Compound I-1511]"
  Target Desc: "human P2X3 receptor (Homo sapiens (Human), UniProt P56373)"
  Result Number: 1.46
- Compound: "Cc1nsc(Oc2ccc(/N=c3\\[nH]c(=O)n(CC(=O)NCCO)c(=O)n3Cc3ccc(Cl)cc3)cc2)n1 [Compound I-2678]"
  Target Desc: "human P2X3 receptor (Homo sapiens (Human), UniProt P56373)"
  Result Number: 0.48
- Compound: "Cc1ccc(Cn2c(=O)n(C[C@H](C)C(=O)O)c(=O)[nH]/c2=N\\c2ccc(OCC(C)C)cc2)cc1 [Compound I-0827]"
  Target Desc: "human P2X3 receptor (Homo sapiens (Human), UniProt P56373)"
  Result Number: 1.41
